# condition context: in ethanol, 293.15 K
readout: solubility (mole fraction)

smiles string: CC(C)C(=O)Nc1ccc([N+](=O)[O-])c(C(F)(F)F)c1
readout: solubility (mole fraction)
result number: 0.0709

====

# condition context: in ethyl acetate, 288.15 K

smiles string: CC(C)C(=O)Nc1ccc([N+](=O)[O-])c(C(F)(F)F)c1
solubility (mole fraction): 0.191

====

# condition context: in isopropanol, 303.15 K

smiles string: CC(C)C(=O)Nc1ccc([N+](=O)[O-])c(C(F)(F)F)c1
solubility (mole fraction): 0.105

====

# condition context: in n-butanol, 323.15 K

smiles string: CC(C)C(=O)Nc1ccc([N+](=O)[O-])c(C(F)(F)F)c1
solubility (mole fraction): 0.156
